The reported numbers originate from PubChem BioAssay (NCI).

As shown below, each of these molecules has a reported TGI value.
test system: CCRF-CEM leukemia; test: NCI tumour cell line growth inhibition, 48 h
measured-quantity: TGI

>>> val("O=C(CSc1nnc(Cc2ccccc2)o1)Nc1ccc([N+](=O)[O-])cc1")
"> 100 µM"
>>> val("CCOC(=N)CC(=O)Nc1cccc(C)c1C")
"> 100 µM"
>>> val("COc1cc2c3c(n(CCCN(C)C)c(=O)c2cc1OC)-c1ccccc1C3=O")
"1.73 µM"
>>> val("COc1cc(CNc2ccc(SC)cc2)cc(OC)c1OC")
"> 90.6 µM"
>>> val("O=C(Nc1ccc(-c2ccccc2)cc1)C1CCN(S(=O)(=O)c2ccccc2Cl)CC1")
"> 100 µM"
>>> val("NC1=NS(=O)(=O)Nc2nc(-c3ccc(Cl)cc3)c(-c3ccc(Cl)cc3)nc21")
"> 100 µM"
>>> val("Cc1cn(C2CC(n3cc(Cn4cc(Br)c(=O)[nH]c4=O)nn3)C(CO)O2)c(=O)[nH]c1=O (stereo unspecified)")
"> 100 µM"
>>> val("COc1ccc(-c2oc3cc(O)c(OC)c(O)c3c(=O)c2OC)cc1O")
"> 100 µM"
>>> val("COC(=O)CCC(=O)CC1CC(=O)C2CCCN12 (stereo unspecified)")
"> 100 µM"
>>> val("O=C1c2ccccc2-c2nc(-c3cccc([N+](=O)[O-])c3)nnc21")
"> 100 µM"
>>> val("NCCSc1nc2ccccc2c(=O)n1-c1ccccc1")
"> 100 µM"

* * *

test system: SK-MEL-2 melanoma; assay: NCI tumour cell line growth inhibition, 48 h
Where a SMILES comes first, the peptide text is derived from it. The star is where a group is joined. X36 = O=C(c1ccc(-c2ccc(Cl)cc2Cl)o1)*
Each item that follows carries a reported TGI.
measured-quantity: TGI

>>> val("Cc1c(C2=C(Br)C(=O)N(C)C2=O)c(=O)n(C)c(=O)n1C")
"35.2 µM"
>>> val("CNC(=O)Oc1ccc(-c2cn3cc(OC(=O)NC)ccc3n2)cc1")
"> 100 µM"
>>> val("CC1(C)O/C(=C\\c2ccccc2)C(=O)/C(=C/c2ccccc2)O1")
"56.7 µM"
>>> val("O=C1c2ccccc2-c2nc(-c3cccc([N+](=O)[O-])c3)nnc21")
"49.2 µM"
>>> val("O=C(Cc1ccccc1)NN1C(=O)/C(=C\\c2cccc(O)c2)SC1=Nc1ccccc1")
"> 100 µM"
>>> val("NP(=O)(OCC1=CC(=O)c2ccccc2C1=O)N(CCBr)CCBr (centres undefined)")
"25.3 µM"
>>> val("CN(C)c1ccc(C2SCC(=O)N2NS(=O)(=O)c2cccc(C(=O)O)c2)cc1 (centres undefined)")
"> 100 µM"
>>> val("CC(=O)C1=C(C)NC2C=CC=CN12 (centres undefined)")
"> 100 µM"
>>> val("Cc1ccc(-c2cc(N)n(-c3nc4c(c(=O)n(C)c(=O)n4C)n3C)n2)cc1")
"> 100 µM"
>>> val("CCC1(C)N=C(c2cnccn2)NN1c1ccc(Cl)cc1 (centres undefined)")
"> 100 µM"
>>> val("COc1ccc2[nH]c3c4c(ccc3c2c1)C(=O)C=CC4=O")
"28.5 µM"
>>> val("COC(=O)C1=C2SCc3cccc(c3)CSC3=C(C(=O)OC)SC(=C(S2)S1)S3")
"> 100 µM"
>>> val("O=C(CSC(c1ccccc1)c1ccccc1)N/N=C/c1ccc(Cl)cc1Cl")
"55.8 µM"
>>> val("c1cc2nnnn2nc1N1CCCC1")
"> 100 µM"
>>> val("CCOC(=O)/C=C(\\C(=O)OCC)n1cc(C)c(=O)n(Cc2cnnn2CCCCOC(C)=O)c1=O")
"53 µM"
>>> val("Cc1cc(C)[n+](CCOc2ccc(/C(=C(/Cl)c3ccccc3)c3ccccc3)cc2)c(C)c1")
"2.18 µM"
>>> val("Cc1ccc([C@H]2CC(=O)C[C@H](c3ccc(C)cc3)C23C(=O)c2ccccc2C3=O)cc1")
"> 100 µM"
>>> val("CCC(C#N)NC(=O)NC(C#N)CC (centres undefined)")
"> 100 µM"
>>> val("CCOC(=O)CNC(=O)c1ccccc1Nc1ccnc(C(F)(F)F)c1")
"> 72.4 µM"
>>> val("C=C1C(=O)CC2C(=O)C(C)(O)CC/C=C(\\C)C(=O)CC12 (centres undefined)")
"> 82.9 µM"
>>> val("CCC(C)C(NC(=O)CNC(=O)C(Cc1ccccc1)NC(=O)C1CCCN1C(=O)c1ccc(-c2ccc(Cl)cc2Cl)o1)C(=O)OC (centres undefined) (X36-PFGI-OMe; configuration not given here)")
"> 100 µM"
>>> val("Cc1cn(C2CC(n3cc(Cn4cc(Br)c(=O)[nH]c4=O)nn3)C(CO)O2)c(=O)[nH]c1=O (centres undefined)")
"> 100 µM"
>>> val("COc1cc(C2SCC(=O)N2c2ccc(-c3ccc(-n4c(-c5ccccc5)nc5ccccc5c4=O)cc3)cc2)cc(OC)c1OC (centres undefined)")
"56.5 µM"
>>> val("COc1cc2c(cc1O)C1Cc3ccc(OC)c(O)c3C(C2)N1C (centres undefined)")
"> 100 µM"

* * *

test system: CCRF-CEM leukemia; assay: NCI tumour cell line growth inhibition, 48 h
Examples of compounds with documented TGI follow.
measured-quantity: TGI

>>> val("CN(C)c1ccc(C2SCC(=O)N2NS(=O)(=O)c2cccc(C(=O)O)c2)cc1 (stereo not given)")
"> 100 µM"
>>> val("CC(C)(C=O)CC(C#N)/C(=N\\NC(N)=O)C(=O)Nc1ccccc1C(N)=O (stereo not given)")
"> 100 µM"
>>> val("COc1cc(C2=C(c3cn(C)c4ccccc34)COC2=O)cc(OC)c1OC")
"> 100 µM"
>>> val("N#C/C(=C/N1CCN(C(=O)c2ccco2)C1=S)C(=O)c1ccccc1")
"> 100 µM"
>>> val("CCOc1ccc(-c2nc(-c3oc4ccccc4c(=O)c3OC(C)=O)cs2)cc1")
"> 10 µM"

* * *

test system: SW-620 colon; test: NCI tumour cell line growth inhibition, 48 h
measured-quantity: TGI

>>> val("COc1cc2cccc(N=Cc3cccc(OC)c3OC(C)C)c2cc1OC")
"48.8 µM"
>>> val("CN(O)C(=O)c1cccc(Cl)c1")
"> 100 µM"
>>> val("COc1ccc2ncn(-c3cc(O[C@H](C)c4ccccc4Cl)c(C(N)=O)s3)c2c1")
"3.69 µM"
>>> val("O=C1c2ccccc2C(=O)N1Cc1ccccc1-c1c2nc(c(-c3ccccc3CN3C(=O)c4ccccc4C3=O)c3ccc([nH]3)c(-c3ccccc3CN3C(=O)c4ccccc4C3=O)c3nc(c(-c4ccccc4CN4C(=O)c5ccccc5C4=O)c4ccc1[nH]4)C=C3)C=C2")
"> 100 µM"
>>> val("Nc1nc(CCl)nc(Nc2ccccc2)n1")
"46.3 µM"
>>> val("O=C1[C@H]2ON(c3ccccc3)C(c3ccc(Cl)cc3)[C@H]2C(=O)N1c1ccc(Cc2ccc(N3C(=O)[C@@H]4ON(c5ccccc5)C(c5ccc(Cl)cc5)[C@@H]4C3=O)cc2)cc1 (stereo not given in full)")
"> 100 µM"
>>> val("O=C(NC(Cc1ccc(I)cc1)C(=O)O)c1ccc(Br)cc1 (stereo not given)")
"> 100 µM"
>>> val("COc1cc(C2=C(c3cn(C)c4ccccc34)COC2=O)cc(OC)c1OC")
"> 100 µM"
>>> val("CCn1c(CO)nn(-c2cc(O[C@@H](C)C(F)(F)F)c(C(=O)Nc3c(F)cccc3Cl)cc2F)c1=O")
"> 100 µM"
>>> val("O=C(Nc1ccc(CO)cc1)c1coc2ccccc2c1=O")
"> 100 µM"
>>> val("Cc1ccc(C2(O)CC(c3ccc([N+](=O)[O-])o3)=NN2C(=O)COc2ccc(Cl)cc2)cc1 (stereo not given)")
"10.6 µM"
>>> val("Cc1cc(C)cc(Nc2cc(=O)[nH]c(=O)[nH]2)c1")
"> 100 µM"
>>> val("CN(NC(=O)c1cccs1)C1=NCCCN1")
"> 100 µM"
>>> val("O=C(Nc1ccc(Br)cc1)c1ccc(Cl)c(Cl)c1")
"> 100 µM"
>>> val("CC(=O)O[C@H]1CC[C@@]2(C)C(=CC[C@H]3[C@@H]4C[C@H](N5CCCC5)[C@H](OC(C)=O)[C@@]4(C)CC[C@@H]32)C1")
"> 100 µM"
>>> val("Oc1cn(-c2ccc(Cl)cc2)nc1-c1n[nH]c(=S)n1C1CCCCC1")
"> 100 µM"
>>> val("O=C1CCCCC(=O)OC2(CCCCC2=O)CC1 (stereo not given)")
"> 100 µM"
>>> val("N#C/C(=C\\n1ccc(=O)[nH]c1=S)C(N)=O")
"> 100 µM"
>>> val("CC(=O)c1ccc2c3c1[C@@H]1O[C@@H]1c1cccc(c1-3)[C@@H]1O[C@H]21")
"7.99 µM"
>>> val("CC(=O)C1=C(C)NC2C=CC=CN12 (stereo not given)")
"> 100 µM"
>>> val("O=C(Nc1ccc(-n2cc(-c3ccncc3)c(-c3ccc(Cl)c(O)c3)n2)cc1)Nc1ccc(Cl)c(C(F)(F)F)c1")
"5.04 µM"
>>> val("CCC(C)(C)c1ccc(OCCCCCCN2CCNCC2)cc1")
"3.97 µM"
>>> val("Cc1cc2c(cc1Cl)SC(=Nc1ccc(Cl)cc1)N(S(=O)(=O)c1ccccc1)S2(=O)=O")
"17.4 µM"
>>> val("C=CCSS/C=C/CS(=O)CC=C (stereo not given)")
"22.7 µM"
>>> val("CC(=O)c1sc(-c2nc(C)c(C(=O)/C=C\\c3ccc(/C=C\\C(=O)c4sc(-c5nc(C)c(C(C)=O)s5)nc4C)cc3)s2)nc1C")
"> 100 µM"
